System: Fibroblast
Experiment: Incucyte cell viability with human fibroblast; further: unitless GR value; below 1 slowed growth and below 0 cell loss
Format: toxicity, cell-based
Settings: 12 h, 10 µM, compound concentration 10 uM, replicate number 1, timepoint 12 hours
One threshold, -0.5, splits the recorded Growth Rate values: lower ones are rule met, equal or higher ones are rule not met.

[
  {
    "Molecule": "COc1ccc(NC(=O)c2ccc(-c3ccc(-c4noc(C)n4)cc3C)cc2)cc1OCCN(C)C.Cl",
    "Class": "rule not met"
  }
]

Next item in the queue.
Given "CN[C@@H](C)C(=O)N[C@H]1CCCC[C@H]2CC[C@@H](C(=O)N[C@@H](c3ccccc3)c3cn(CCCCc4ccc(CCCCn5cc([C@@H](NC(=O)[C@@H]6CC[C@@H]7CCCC[C@H](NC(=O)[C@H](C)NC)C(=O)N76)c6ccccc6)nn5)cc4)nn3)N2C1=O" , is recorded Growth Rate strictly lower than -0.5?
rule not met

----------
// reported Growth Rate per item
Tested on: Fibroblast
Assay: Incucyte cell viability with human fibroblast; further: unitless GR value; below 1 slowed growth and below 0 cell loss
Assay type: toxicity, cell-based
Conditions: 24 h, 10 µM, compound concentration 10 uM, replicate number 2, timepoint 24 hours

A selection of reference data follows.
[
  {
    "Molecule": "O=C1NC(=Nc2c(Cl)cccc2Cl)S/C1=C\\c1ccc2nccnc2c1",
    "Measure": "Growth Rate",
    "Result": 0.48
  },
  {
    "Molecule": "CC[C@H]1CN2CCc3cc(OC)c(OC)cc3[C@@H]2C[C@@H]1C[C@H]1NCCc2cc(OC)c(OC)cc21",
    "Measure": "Growth Rate",
    "Result": -0.61
  },
  {
    "Molecule": "CCOc1nc2cccc(C(=O)O)c2n1Cc1ccc(-c2ccccc2-c2nnn[nH]2)cc1",
    "Measure": "Growth Rate",
    "Result": 0.45
  }
]

Give the value of Growth Rate reported for the following: COc1cc2nc(N(C)CCCNC(=O)C3CCCO3)nc(N)c2cc1OC.Cl (centres undefined) [ALFUZOSIN HYDROCHLORIDE]
0.47

----------
Test system: U2OS
Assay: Incucyte cell viability with U2OS; further: unitless GR value; below 1 slowed growth and below 0 cell loss
Type: toxicity, cell-based
Conditions: human, 24 h, 10 µM, compound concentration 10 uM, replicate number 1, timepoint 24 hours
Measure: Growth Rate

Consider the worked cases shown below.
[
  {
    "Chem Smiles": "C[C@H](N)Cn1ccc2cc(F)c(Cl)cc21.O=C(O)/C=C/C(=O)O",
    "Measure": "Growth Rate",
    "Result": 0.91
  },
  {
    "Chem Smiles": "Cc1cc(O)c(-c2ccc([C@@H](C)CN(C)C)cc2)c2c1[nH]c(=O)c1sccc12",
    "Measure": "Growth Rate",
    "Result": 0.16
  },
  {
    "Chem Smiles": "CCCOc1ccc2[nH]cc(C3=CCNCC3)c2n1.Cl",
    "Measure": "Growth Rate",
    "Result": 0.92
  },
  {
    "Chem Smiles": "O=C1NC(=O)C(c2ccccc2[N+](=O)[O-])=C1Nc1ccc(O)c(Cl)c1",
    "Measure": "Growth Rate",
    "Result": 0.84
  }
]

Let me know recorded Growth Rate for "O=C1NC(NC23CC4CC(CC(C4)C2)C3)=N/C1=C\c1ccc2ncsc2c1" , thanks.
0.62

----------
System: Fibroblast
Experiment: Incucyte cell viability with human fibroblast; further: unitless GR value; below 1 slowed growth and below 0 cell loss
Assay type: toxicity, cell-based
Conditions: 24 h, 10 µM, compound concentration 10 uM, replicate number 2, timepoint 24 hours
Each item that follows carries a reported Growth Rate.
# answer = number (no unit)

[
  {
    "Molecule": "Cc1nc2ccc(Oc3ccc(F)cc3)cc2c(=O)n1C[C@H]1CCCN(C(C)C)C1.Cl",
    "Growth Rate": -0.28
  }
]

Give me measured Growth Rate, please, for this molecule: Cl.Cl.NCCc1c[nH]cn1 [HISTAMINE DIHYDROCHLORIDE]
0.76

Report Growth Rate for "COc1cc2nc(N3CCN(C(=O)COc4c(OC)cccc4C(C)C)CC3)nc(N)c2cc1OC.Cl.Cl"
-0.39

Please report Growth Rate for the following molecule: "CC(F)(F)CN1CCOc2c(nn(-c3ccccc3Cl)c2-c2ccc(Cl)cc2)C1=O"
0.06

Output Growth Rate of CN(C)C/C=C/C(=O)Nc1ccc(C(=O)N2CCCC(Nc3ncc(Cl)c(-c4c[nH]c5ccccc45)n3)C2)cc1 (configuration not stated)
-0.06

Respond only with Growth Rate recorded for "CC[C@@H](C)Nc1nc(C)nc2c(-c3ccc(OC)nc3C)c(C)nn12"
1

Input "CS(=O)(=O)c1ccc(C(=O)Nc2ccc(Cl)c(-c3ccccn3)c2)c(Cl)c1" , output reported Growth Rate.
0.73
